- assayNotes: Oral bioavailability in rat at 25 mg/kg dosed as solution in PEG400/EtOH
- Type: ADME, organism-based
- measurementConditions: in vivo
assayReadout: bioavailability (%)
Numbers only, in %.

[
  {
    "recordSmiles": "O=C(C(=O)N1CCN(C(=O)c2ccccc2)CC1)c1c[nH]c2cccc(F)c12",
    "bioavailability (%)": 17
  }
]

Proceed to the following item.
stdin: Given the entry `O=C(C(=O)N1CCN(C(=O)c2ccccc2)CC1)c1c[nH]c2ccccc12` , report its measured bioavailability.
stdout: 29

====

Could you please report measured CC50 at 72 h for the items listed next?
- assayNotes: Cytotoxicity against human HeLa67 cells expressing CD4/CCR5 after 3 days by XTT assay
- Type: cell-based
One number for each entry, in µM.

Some solved entries appear below for comparison.
[
  {
    "recordSmiles": "COc1ccc(Br)c2[nH]cc(C(=O)C(=O)N3CCN(C(=O)c4ccccc4)CC3)c12",
    "CC50 at 72 h (µM)": 118
  },
  {
    "recordSmiles": "O=C(C(=O)N1CCN(C(=O)c2ccccc2)CC1)c1c[nH]c2c(Br)ccc(F)c12",
    "CC50 at 72 h (µM)": 39.8
  },
  {
    "recordSmiles": "O=C(C(=O)N1CCN(C(=O)c2ccccc2)CC1)c1c[nH]c2ccc(Cl)cc12",
    "CC50 at 72 h (µM)": 46
  }
]

Proceed to the following item.
stdin: Given the entry `O=C(C(=O)N1CCN(C(=O)c2ccccc2)CC1)c1cn(Cc2ccccc2)c2ccccc12` , report its measured CC50 at 72 h.
stdout: 182

====

- assayNotes: Cytotoxicity against human HeLa67 cells expressing CD4/CCR5 after 3 days by XTT assay
- Type: cell-based
Could you please report measured CC50 at 72 h for the items listed next?
Give bare numbers, in µM.

[
  {
    "recordSmiles": "O=C(C(=O)N1CCN(C(=O)c2ccccc2)CC1)c1c[nH]c2cc(F)c(F)cc12",
    "CC50 at 72 h [µM]": 170
  }
]

Proceed to the following item.
stdin: Given the entry `O=C(C(=O)N1CCN(C(=O)c2ccccc2)CC1)c1c[nH]c2c(OCC(F)(F)F)ccc(F)c12` , report its measured CC50 at 72 h.
stdout: 196

====

- assayNotes: Cytotoxicity against human HeLa67 cells expressing CD4/CCR5 after 3 days by XTT assay
- Format: cell-based
Could you please report measured CC50 at 72 h for the items listed next?

[
  {
    "recordSmiles": "O=C(C(=O)N1CCN(C(=O)c2ccccc2)CC1)c1c[nH]c2cc(Cl)ccc12",
    "assayReadout": "CC50 at 72 h",
    "endpointResult": "> 110 µM"
  },
  {
    "recordSmiles": "CCCCn1cc(C(=O)C(=O)N2CCN(C(=O)c3ccccc3)CC2)c2ccccc21",
    "assayReadout": "CC50 at 72 h",
    "endpointResult": "> 300 µM"
  }
]

Proceed to the following item.
stdin: Given the entry `CCOc1cccc2[nH]cc(C(=O)C(=O)N3CCN(C(=O)c4ccccc4)CC3)c12` , report its measured CC50 at 72 h.
stdout: > 94.8 µM
